Assay: Solubility of cladribine in water at various HPCD concentrations (HPLC)
Type: physicochemical
Conditions: 25% hp-β-cd in buffered water, pH 7.3, 4° C.; 25% HP-β-CD (W/W); pH 7.3; read-out: Solubility of Cladribine at 4° C.

- substance-smiles: "Nc1nc(Cl)nc2c1ncn2[C@H]1C[C@H](O)[C@@H](CO)O1"
  solubility at 120 h [µg/mL]: 9910

---

Assay: Solubility of cladribine in water at various HPCD concentrations (HPLC)
Assay type: physicochemical
Details: 10% hp-β-cd in buffered water, pH 7.3, RT; 10% HP-β-CD (W/W); pH 7.3; read-out: Solubility of Cladribine (mg/ml) at RT

- substance-smiles: "Nc1nc(Cl)nc2c1ncn2[C@H]1C[C@H](O)[C@@H](CO)O1"
  measurement-units: "mg/mL"
  solubility at 120 h: 6.4

---

Test: Solubility of cladribine in water at various HPCD concentrations (HPLC)
Assay type: physicochemical
Details: 20% hp-β-cd in buffered water, pH 7.3, RT; 20% HP-β-CD (W/W); pH 7.3; read-out: Solubility of Cladribine (mg/ml) at RT

- compound: "Nc1nc(Cl)nc2c1ncn2[C@H]1C[C@H](O)[C@@H](CO)O1 [Cladribine, 2-chloro-2'-deoxyadenosine]"
  solubility at 120 h: "10.5 mg/mL"

---

Assay: Solubility of cladribine in water at various HPCD concentrations (HPLC)
Assay type: physicochemical
Details: 10% hp-β-cd in buffered water, pH 7.3, 4° C.; 10% HP-β-CD (W/W); pH 7.3; read-out: Solubility of Cladribine at 4° C.
parameter-measured: solubility at 120 h (µg/mL)

- substance-smiles: "Nc1nc(Cl)nc2c1ncn2[C@H]1C[C@H](O)[C@@H](CO)O1"
  measurement-units: "µg/mL"
  test-value: 4930

---

Test: Solubility of cladribine in water at various HPCD concentrations (HPLC)
Type: physicochemical
Settings: 25% hp-β-cd in buffered water, pH 7.3, RT; 25% HP-β-CD (W/W); pH 7.3; read-out: Solubility of Cladribine (mg/ml) at RT

- molecule: "Nc1nc(Cl)nc2c1ncn2[C@H]1C[C@H](O)[C@@H](CO)O1 [Cladribine, 2-chloro-2'-deoxyadenosine]"
  solubility at 120 h (mg/mL): 12.4

---

Assay: Solubility of cladribine in water at various HPCD concentrations (HPLC)
Assay type: physicochemical
Conditions: 15% hp-β-cd in buffered water, pH 7.3, 4° C.; 15% HP-β-CD (W/W); pH 7.3; read-out: Solubility of Cladribine at 4° C.

- substance-smiles: "Nc1nc(Cl)nc2c1ncn2[C@H]1C[C@H](O)[C@@H](CO)O1"
  solubility at 120 h: "6510 µg/mL"

---

Experiment: Solubility of cladribine in water at various HPCD concentrations (HPLC)
Assay type: physicochemical
Conditions: no HPCD, temperature not stated, read-out: normal solubility of cladribine in water

- substance-smiles: "Nc1nc(Cl)nc2c1ncn2[C@H]1C[C@H](O)[C@@H](CO)O1"
  solubility: "~4520 µg/mL"
